target: T1, mouse DLL4, full length, overexpressed on CHO or HEK293 cells (mouse, UniProt Q9JI71 27-686); assay: periplasmic extract; FMAT, Notch1/Fc on CHO-mDLL4
T1 construct: whole, on cells; also called CHO-mDLL4; CHO-mDII4
T1 sequence (Q9JI71 27-686): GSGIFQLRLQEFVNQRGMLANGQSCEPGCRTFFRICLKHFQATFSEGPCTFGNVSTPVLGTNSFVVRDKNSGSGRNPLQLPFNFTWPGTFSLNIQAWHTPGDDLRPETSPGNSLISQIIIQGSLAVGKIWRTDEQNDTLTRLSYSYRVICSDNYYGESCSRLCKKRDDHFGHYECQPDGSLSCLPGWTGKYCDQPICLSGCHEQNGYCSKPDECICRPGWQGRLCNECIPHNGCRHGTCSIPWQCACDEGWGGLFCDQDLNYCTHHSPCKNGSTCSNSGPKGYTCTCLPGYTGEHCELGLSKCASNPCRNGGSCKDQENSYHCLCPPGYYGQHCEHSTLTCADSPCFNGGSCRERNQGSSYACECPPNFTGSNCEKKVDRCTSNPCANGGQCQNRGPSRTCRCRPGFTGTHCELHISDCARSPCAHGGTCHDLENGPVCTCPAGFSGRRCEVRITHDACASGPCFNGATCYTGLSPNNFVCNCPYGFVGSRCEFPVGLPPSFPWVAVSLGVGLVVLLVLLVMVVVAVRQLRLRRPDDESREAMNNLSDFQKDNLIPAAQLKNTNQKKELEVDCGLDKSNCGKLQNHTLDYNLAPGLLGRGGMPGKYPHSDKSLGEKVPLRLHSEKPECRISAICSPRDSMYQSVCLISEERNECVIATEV
Parameter: % inhibition. Scope: all listed entries.
Enter your answer as a number in %; do not include the unit.

Some solved cases for reference:
INSERT INTO results (binder, reported_result) VALUES
  ('DLLBII102F08 (VHH, also called DLLBII102F8; not shown: C-terminal c-myc and His6 tags) VHH: EVQLVESGGGLVQTGDSLRLSCAASGSTFSNYRMGWFRQGPGKEREFVAAIGRNGQNTYYTDSVKGRFTVTRDNAKNMVYLQMNSLKPEDSAVYTCAASLRGWDTTRIDYEYWGQGTQVTVSS', 75),
  ('DLLBII102G04 (VHH, also called DLLBII102G4; not shown: C-terminal c-myc and His6 tags) VHH: EVQLMESGGGLVQPGGSLRLSCAASGFTFSSYAMSWVRQAPGKGLEWVSRITSGGRTTYRDSVKGRFTISRDNSKNTLYLQMNSLKPEDTALYYCAKARGDIDVYTLSDSRGQGTQVTVSS', 82),
  ('DLLBII96C03 (VHH, also called 96CO3; 96C3; not shown: C-terminal c-myc and His6 tags) VHH: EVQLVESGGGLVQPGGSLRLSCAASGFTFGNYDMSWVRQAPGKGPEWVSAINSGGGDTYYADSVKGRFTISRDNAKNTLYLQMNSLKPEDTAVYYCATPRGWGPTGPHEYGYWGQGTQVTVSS', 83),
  ('DLLBII104C04 (VHH, also called DLLBII104C4; not shown: C-terminal c-myc and His6 tags) VHH: EVQLVESGGGLVQAGGSLRLSCAAAGSTFSSYVMGWYRQAPGKQRELVAHISTRGITYYADSVKGRFTISRDNAKNTMYLQMNSLKPEDTAVYYCNTRRNFLSNYWGQGTQVTVSS', 83),
  ('DLLBII80E08 (VHH, also called DLLBII80E8; not shown: C-terminal c-myc and His6 tags) VHH: EVQLVESGGGLVQAGGSLTLSCAASGGTFTTYAMGWFRQAPGKEREFVAAVSRFGVSWDYADSVKGRFTISRDNTANTLKLRMNSLKADDTAVYYCAAGGRSFLPFVPAYWGQGTQVTVSS', 82),
  ('DLLBII104A03 (VHH, also called DLLBII104A3; not shown: C-terminal c-myc and His6 tags) VHH: EVQLVESGGGLVQAGGSLRLSCAASGDIPRIAAMGWYRQAPGKQRELVATVSNAATTRYADSAKGRFTISRDNAKTVSLQMDNLKPEDTGVYYCYSLATTVTPSWVNYWGQGTQVTVSS', 83),
  ('DLLBII101H09 (VHH, also called DLLBII101H9; DLL1BII101H09; not shown: C-terminal c-myc and His6 tags) VHH: EVQLVESGGGLVQPGGSLRLSCAASGFTLGYYTIVWFRQAPGKERKGVSCISSRDGSRYYADSVKGRFTISRDNAKNTVYLRMNSLKPEDTAVYYCAAGPDCSSYDYWGQGTQVTVSS', 75),
  ('DLLBII101G08 (VHH, also called 101G8; DLLBII101G8; not shown: C-terminal c-myc and His6 tags) VHH: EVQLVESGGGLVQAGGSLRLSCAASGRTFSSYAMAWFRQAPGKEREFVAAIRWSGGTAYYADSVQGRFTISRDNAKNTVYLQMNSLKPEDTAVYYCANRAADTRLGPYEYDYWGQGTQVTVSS', 92);

Enquiry: Would you mind telling me what % inhibition value was observed for DLLBII104G01 (VHH, also called 104G1; DLLBII104G1; not shown: C-terminal c-myc and His6 tags) VHH: EVQLVESGGGLVQAGGSLRLSCAASGFTFDDYAIGWFRQAPGKEREGVSCISSSDGSTYYADSVKGRFTISSDNAKNTVYLQMNSLKPEDTAVYYCATAWCDSSWYRSFVGYWGQGTQVTVSS ?
Return: 86

Enquiry: Try this binder too: DLLBII115A05 (VHH, also called 115A5; DLLBII115A5; not shown: C-terminal c-myc and His6 tags) VHH: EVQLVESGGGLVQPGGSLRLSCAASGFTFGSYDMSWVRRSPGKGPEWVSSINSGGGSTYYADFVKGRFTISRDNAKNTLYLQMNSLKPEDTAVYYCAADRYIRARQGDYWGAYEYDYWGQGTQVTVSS
Return: 84

Enquiry: Try this binder too: DLLBII101H05 (VHH, also called DLLBII101H5; not shown: C-terminal c-myc and His6 tags) VHH: EVQLVESGGGSAQAGGSLRLSCAASGRTSSTYAMGWFRQAPGKEHEFVSAIGRGTGATSYGDSVKGRFTISRDNAKNTVYLQMNSLQLEDTGDYYCVAGRGFYHDYSSYEYRGQGTQVTVSS
Return: 83

Enquiry: Try this binder too: DLLBII104B05 (VHH, also called DLLBII104B5; DLLBII1040B05; not shown: C-terminal c-myc and His6 tags) VHH: EVQLVESGGGSVQAGGSLRLSCAASGSISRIDVMAWYRQAPGKERELVASISSGGSTNYADSVKGRFTISREYFKNMMYLQMNSLKFEDTAVYYCNADSRRGGVGNFFRSWGQGTQVTVSS
Return: 78

# credit: patent US20130078247A1
